Experiment: Human HepG2 cell viability assay in 384 well format
Assay type: toxicity, cell-based
Design: dose 125 nL, time 70.5 hour; concentration not given beside the values
Settings: HepG2 cells, read-out: Inhibition
Kindly state cytotoxicity at 70.5 h for each of the entries shown.
One number for each entry, in %.

CC(C)Nc1nc2c(c(NC3CC3)n1)CN(C(=O)c1ccsc1)CC2: -17.2

Kindly give each listed record's cytotoxicity at 70.5 h.
1. C[C@@H]1CN(CCOCc2ccccc2)CC[C@@]1(O)C1CCC1
2. Cc1ccc(NC(=O)NCC2CCS(=O)(=O)C2)cc1Cl (stereo not drawn)
3. CCc1noc(CN2C[C@H]3CC[C@@H]2CN(C2Cc4ccccc4C2)C3)n1
4. COc1cc(N2C[C@@H]3COC[C@@H](Cc4nnc(C)o4)[C@@H]3C2)ncn1

1: 37.7; 2: 0.575; 3: 4.55; 4: -0.141

Okay, here is my list. What is cytotoxicity at 70.5 h for each of these?
1. Cc1ccoc1C(=O)NCCOc1ccc(C(F)(F)F)cn1
2. CCn1cc2c(n1)CN(Cc1sccc1C)CC2COCC1CC1 (stereo not drawn)
3. CN(CC(=O)N1CCCC1c1noc(C2CC2)n1)Cc1ccccc1 (stereo not drawn)
4. CC1CCCCN1C(=O)COc1nc(C(C)(C)C)no1 (stereo not drawn)

1. 18.3
2. -7.71
3. -7.61
4. -2.52

List reported cytotoxicity at 70.5 h for each of these compounds:
1. COc1cccc(C(O)C(=O)N(C)CCc2ccccn2)c1 (stereo not drawn)
2. CS(=O)(=O)N1CCC(NC(=O)COc2ccccc2Cl)CC1
3. NC(=O)c1cc2c(nc1CC1CCCCO1)CCC2 (stereo not drawn)
4. CC(=O)N1CCC(C(=O)NCCN2CCCCC2)CC1
5. CCOC(=O)N1CCN(C(=O)c2cc(-c3ccccc3F)on2)CC1
6. CO[C@H]1CO[C@@]2(CCCN(C(=O)C3CC=CC3)C2)C1

1: -0.0669; 2: -3.89; 3: -2.08; 4: -0.67; 5: -0.971; 6: -0.276

Provide the reported cytotoxicity at 70.5 h of each entry below, same order.
1. COc1ccc2c(c1)OCC(Cc1ccc(N(C)C)nc1)C2 (stereo not drawn)
2. O=C1CCC(=O)N1c1nn(Cc2ccc(F)cc2)cc1Cl
3. CC(NC(=O)N1CCNC(=O)CC1)c1ccc(C(F)(F)F)cc1 (stereo not drawn)

-4.83
18.7
-19.2
